- Target desc: P. falciparum apicoplast DNA polymerase (Pf-apPOL) (Plasmodium falciparum, UniProt Q8ILY1)
- Sequence (Q8ILY1 entry or part of it): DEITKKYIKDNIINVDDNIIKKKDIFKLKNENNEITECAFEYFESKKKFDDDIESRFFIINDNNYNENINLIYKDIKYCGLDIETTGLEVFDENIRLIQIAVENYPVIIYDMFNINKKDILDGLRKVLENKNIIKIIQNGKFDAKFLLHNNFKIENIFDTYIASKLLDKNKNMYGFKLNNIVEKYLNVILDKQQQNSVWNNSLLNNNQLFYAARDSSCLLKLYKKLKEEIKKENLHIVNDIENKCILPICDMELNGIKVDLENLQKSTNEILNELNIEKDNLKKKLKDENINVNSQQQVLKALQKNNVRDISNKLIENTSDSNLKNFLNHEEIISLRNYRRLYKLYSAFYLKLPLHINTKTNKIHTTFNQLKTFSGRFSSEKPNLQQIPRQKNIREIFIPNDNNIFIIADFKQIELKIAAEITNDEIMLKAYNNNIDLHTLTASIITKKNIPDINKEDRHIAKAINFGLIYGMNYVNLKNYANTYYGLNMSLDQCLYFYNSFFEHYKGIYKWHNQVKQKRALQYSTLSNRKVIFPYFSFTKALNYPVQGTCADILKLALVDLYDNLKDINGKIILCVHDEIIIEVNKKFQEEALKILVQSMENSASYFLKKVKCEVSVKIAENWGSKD
- Test details: Fluorescence-based high-throughput DNA polymerase assay (molecular beacon), primary screen and dose-response
- Format: biochemical
- Particulars: DRC-2; 5'; conc 80
Recorded % inhibition Apo pol 5' by entry
Quantity kind: % inhibition Apo pol 5'

Molecule | Data value
O=C1NN(c2ccc(Cl)c(Cl)c2)C(=O)/C1=C/c1ccc(-c2ccc3c(c2)C(=O)OC3)o1 [Molecule 90] | 63%
Cc1cccc(C2=N/C(=C\c3ccc([N+](=O)[O-])o3)C(=O)O2)c1 [KU0058960] | 48%
N#CC(C#N)=C1SCN(c2cccc(Cl)c2)CS1 [Molecule 29, N#CC(=C1SCN(CS1)c1cccc(c1)Cl)C#N] | 60%
Cc1ccc(NC(=O)Cn2ccc3c(=O)[nH]ccc32)c(C)c1 [KU0205125] | 50%
C=CCOc1c(Br)cc(Br)cc1/C=C1\SC(=N)NC1=O [KU0051640] | 54%
O=C1Nc2ccc(I)cc2C1=Cc1cc(Br)c(O)c(Br)c1 [Molecule 27] | 54%
COC(=O)c1sc(-c2ccc(C(C)(C)C)cc2)cc1NC(=O)CCC(=O)O [Molecule 87] | 59%
Cc1ccc(N2NC(=O)/C(=C\c3ccc(O)c([N+](=O)[O-])c3)C2=O)cc1Cl [KU0058427] | 56%
Cc1cccc(NC(=O)Cn2ccc3c(=O)[nH]ccc32)c1C [Molecule 11, O=C(Cn1ccc2c1cc[nH]c2=O)Nc1cccc(c1C)C] | 39%
Cc1ccccc1NC(=O)Cn1ccc2c(=O)[nH]ccc21 [Molecule 50, O=C(Cn1ccc2c1cc[nH]c2=O)Nc1ccc(cc1)C] | 42%
CC(C)CCNC(=O)c1cnn2c(O)cc(CSc3ccc(Cl)cc3)nc12 [Molecule 101] | 69%
O=c1nc(/C=C/c2ccc(Br)cc2)oc2ccccc12 [KU0052629] | 61%

// provenance: paper PMC9090415
